The reader will find Ki measurements below, all made with UniProt:P14416.
Sequence (P14416 whole entry): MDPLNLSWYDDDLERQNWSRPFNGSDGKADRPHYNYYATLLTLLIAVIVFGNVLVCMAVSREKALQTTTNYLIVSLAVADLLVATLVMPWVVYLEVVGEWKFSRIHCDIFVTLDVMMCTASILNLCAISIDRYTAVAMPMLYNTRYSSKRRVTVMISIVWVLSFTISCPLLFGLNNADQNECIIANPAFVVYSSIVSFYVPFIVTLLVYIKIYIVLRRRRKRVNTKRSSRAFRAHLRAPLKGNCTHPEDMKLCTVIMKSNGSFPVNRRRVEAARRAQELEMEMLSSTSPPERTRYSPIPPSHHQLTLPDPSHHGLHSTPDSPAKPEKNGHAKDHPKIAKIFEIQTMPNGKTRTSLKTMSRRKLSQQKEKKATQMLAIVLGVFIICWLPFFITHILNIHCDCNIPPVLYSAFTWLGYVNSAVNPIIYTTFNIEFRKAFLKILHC
measuredAttribute: Ki (nM)

structuresmiles=COc1ccccc1N1CCN(CCCCNC(=O)c2ccc(-c3ccc(C(C)=O)cc3)cc2)CC1 measuredattribute=Ki value=39.8
structuresmiles=COc1ccccc1N1CCN(CCCCNC(=O)c2ccc(-c3ccc(N)cc3)cc2)CC1 measuredattribute=Ki value=20
structuresmiles=COc1ccc(OC)c(N2CCN(CCCCNC(=O)c3ccc(Br)cc3)CC2)c1 measuredattribute=Ki value=100
structuresmiles=O=C(NCCCCN1CCN(c2ccccc2)CC1)c1ccc(Br)cc1 measuredattribute=Ki value=398

---

experimentalTarget: Adrenergic receptor alpha-1 (Rattus norvegicus, UniProt P15823+P23944+P43140)
protocol: Compound was evaluated for binding affinity towards Alpha-1 adrenergic receptor using [3H]prazosin in rat heart
measuredAttribute: Log Ki

structuresmiles=COc1ccc(OC)c(N2CCN(CCCCNC(=O)c3ccc(Br)cc3)CC2)c1 value=-7.5
structuresmiles=COc1ccccc1N1CCN(CCCCNC(=O)c2ccc(Br)cc2)CC1 value=-7.9
structuresmiles=COc1ccccc1N1CCN(CCCCNC(=O)c2ccc(-c3ccc(S(C)(=O)=O)cc3)cc2)CC1 value=-7.9
structuresmiles=COc1ccccc1N1CCN(CCCCNC(=O)c2ccc(-c3ccc(N)cc3)cc2)CC1 value=-8
